- Experiment summary: Whole-body excretion studies in rats after oral administration (whole-body counts, bi-exponential fit)
- Assay type: in vivo, rat
- Conditions: Retention(t)=ae^-xt+be^-yt+c
Kindly return yes if reported y (rate constant of second component) is no lower than 0.5 day⁻¹; return no if it is lower.

1. C[C@H](C[75Se]CC(=O)O)[C@H]1CC[C@H]2[C@@H]3CC[C@@H]4C[C@H](O)CC[C@]4(C)[C@H]3C[C@H](O)[C@]12C; yes
2. C[C@H](CCC[75Se]CC(=O)O)[C@H]1CC[C@H]2[C@@H]3CC[C@@H]4C[C@H](O)CC[C@]4(C)[C@H]3CC[C@]12C; no
3. C[C@H](CC[75Se]CCC(=O)O)[C@H]1CC[C@H]2[C@@H]3[C@H](O)C[C@@H]4C[C@H](O)CC[C@]4(C)[C@H]3C[C@H](O)[C@]12C; yes
4. C[C@H](CC[123Te]CC(=O)O)[C@H]1CC[C@H]2[C@@H]3CC[C@@H]4C[C@H](O)CC[C@]4(C)[C@H]3C[C@H](O)[C@]12C; no
5. C[C@H](CC[75Se]CCC(=O)O)[C@H]1CC[C@H]2[C@@H]3[C@H](O)C[C@@H]4C[C@H](O)CC[C@]4(C)[C@H]3CC[C@]12C; yes
6. CC([75Se]CC(=O)NCC(=O)O)[C@H]1CC[C@H]2[C@@H]3[C@H](O)C[C@@H]4C[C@H](O)CC[C@]4(C)[C@H]3C[C@H](O)[C@]12C (stereo partly shown) [vi, Glyco-22-[^75 Se]selenacholic acid]; yes
7. CC([75Se]CC(=O)O)[C@H]1CC[C@H]2[C@@H]3[C@H](O)C[C@@H]4C[C@H](O)CC[C@]4(C)[C@H]3C[C@H](O)[C@]12C (stereo partly shown); no

* * *

- Experiment summary: Whole-body excretion studies in rats after oral administration (whole-body counts, bi-exponential fit)
- Assay type: in vivo, rat
- Conditions: whole-body retention as % of initial counts, 6-8 days
Measured metric: a (amplitude of first component, Retention(t)=ae^-xt+be^-yt+c)

1) CC([75Se]CC(=O)NCC(=O)O)[C@H]1CC[C@H]2[C@@H]3[C@H](O)C[C@@H]4C[C@H](O)CC[C@]4(C)[C@H]3C[C@H](O)[C@]12C (stereo partly shown) [vi, Glyco-22-[^75 Se]selenacholic acid]; 221%
2) C[C@H](CC[123Te]CC(=O)O)[C@H]1CC[C@H]2[C@@H]3CC[C@@H]4C[C@H](O)CC[C@]4(C)[C@H]3C[C@H](O)[C@]12C; 173%
3) C[C@H](CC[75Se]CCC(=O)O)[C@H]1CC[C@H]2[C@@H]3[C@H](O)C[C@@H]4C[C@H](O)CC[C@]4(C)[C@H]3CC[C@]12C; 170%
4) C[C@H](C[75Se]CC(=O)O)[C@H]1CC[C@H]2[C@@H]3CC[C@@H]4C[C@H](O)CC[C@]4(C)[C@H]3C[C@H](O)[C@]12C; 190%
5) CC([75Se]CC(=O)O)[C@H]1CC[C@H]2[C@@H]3[C@H](O)C[C@@H]4C[C@H](O)CC[C@]4(C)[C@H]3C[C@H](O)[C@]12C (stereo partly shown); 98%
6) C[C@H](CCC[75Se]CC(=O)O)[C@H]1CC[C@H]2[C@@H]3CC[C@@H]4C[C@H](O)CC[C@]4(C)[C@H]3CC[C@]12C; 203%
7) C[C@H](CC[75Se]CCC(=O)O)[C@H]1CC[C@H]2[C@@H]3[C@H](O)C[C@@H]4C[C@H](O)CC[C@]4(C)[C@H]3C[C@H](O)[C@]12C; 260%
